Data origin: ChEMBL document CHEMBL2375304

test system: ACHN; assay: Growth inhibition of human ACHN cells at 10^-5 M after 48 hrs by Sulforhodamine B assay relative to control; assay type: functional; settings: read-out: GI
VALUE_KIND: inhibition of growth at 10 µM (%)

CN1CCN(c2nc(-c3ccccn3)nc3sc4c(c23)CCCCCC4)CC1: 4.94
c1ccc(N2CCN(c3nc(-c4ccccn4)nc4sc5c(c34)CCCCCC5)CC2)cc1: 56.1
Clc1nc(-c2ccncc2)nc2sc3c(c12)CCCCCC3: -0.47
c1ccc(N2CCN(c3nc(-c4ccncc4)nc4sc5c(c34)CCCCCC5)CC2)cc1: 7.05
COc1ccc(N2CCN(c3nc(-c4ccncc4)nc4sc5c(c34)CCCCCC5)CC2)cc1: 19.9
Clc1nc(-c2ccccn2)nc2sc3c(c12)CCCCCC3: 120
NNc1nc(-c2ccncc2)nc2sc3c(c12)CCCCCC3: 8.69
c1cc(-c2nc(N3CCOCC3)c3c4c(sc3n2)CCCCCC4)ccn1: 17.1

----------
test system: MOLT-4; assay: Growth inhibition of human MOLT4 cells after 48 hrs by Sulforhodamine B assay; type: functional; settings: MOLT-4, 48 h
VALUE_KIND: GI50 (µM)

O=c1[nH]c(-c2ccccn2)nc2sc3c(c12)CCCCCC3: 2.4
c1ccc(-c2nc(N3CCOCC3)c3c4c(sc3n2)CCCCCC4)nc1: 3.8
NNc1nc(-c2ccccn2)nc2sc3c(c12)CCCCCC3: 3.63
COc1ccc(N2CCN(c3nc(-c4ccccn4)nc4sc5c(c34)CCCCCC5)CC2)cc1: 3.24
CN1CCN(c2nc(-c3ccncc3)nc3sc4c(c23)CCCCCC4)CC1: 3.8

----------
Overview of recorded GI50 for various compounds
tested on: NCI-H23; test: Growth inhibition of human NCI-H23 cells after 48 hrs by Sulforhodamine B assay; format: functional; details: NCI-H23, 48 h
VALUE_KIND: GI50 (µM)

NNc1nc(-c2ccccn2)nc2sc3c(c12)CCCCCC3: 8.91
c1ccc(-c2nc(N3CCOCC3)c3c4c(sc3n2)CCCCCC4)nc1: 6.03
O=c1[nH]c(-c2ccccn2)nc2sc3c(c12)CCCCCC3: 11
CN1CCN(c2nc(-c3ccncc3)nc3sc4c(c23)CCCCCC4)CC1: 11.5
COc1ccc(N2CCN(c3nc(-c4ccccn4)nc4sc5c(c34)CCCCCC5)CC2)cc1: 17

----------
Attribute: GI50
system: MDA-MB-435; experiment: Growth inhibition of human MDA-MB-435 cells after 48 hrs by Sulforhodamine B assay; assay type: functional; conditions: MDA-MB-435, 48 h
VALUE_KIND: GI50 (µM)

CN1CCN(c2nc(-c3ccncc3)nc3sc4c(c23)CCCCCC4)CC1: 11.7
COc1ccc(N2CCN(c3nc(-c4ccccn4)nc4sc5c(c34)CCCCCC5)CC2)cc1: 5.5
c1ccc(-c2nc(N3CCOCC3)c3c4c(sc3n2)CCCCCC4)nc1: 4.79
NNc1nc(-c2ccccn2)nc2sc3c(c12)CCCCCC3: 5.13

----------
tested on: K562; assay: Growth inhibition of human K562 cells after 48 hrs by Sulforhodamine B assay; assay type: functional; details: K562, 48 h
Some compounds, each annotated with its measured GI50.
VALUE_KIND: GI50 (µM)

NNc1nc(-c2ccccn2)nc2sc3c(c12)CCCCCC3: 3.8
CN1CCN(c2nc(-c3ccncc3)nc3sc4c(c23)CCCCCC4)CC1: 3.55
O=c1[nH]c(-c2ccccn2)nc2sc3c(c12)CCCCCC3: 1
COc1ccc(N2CCN(c3nc(-c4ccccn4)nc4sc5c(c34)CCCCCC5)CC2)cc1: 4.17
c1ccc(-c2nc(N3CCOCC3)c3c4c(sc3n2)CCCCCC4)nc1: 3.47
